These measurements were taken from patent US8293764B2.

Target: Rad51-BRC repeat complex (Homo sapiens, UniProt Q06609)
Sequence (Q06609 1-339): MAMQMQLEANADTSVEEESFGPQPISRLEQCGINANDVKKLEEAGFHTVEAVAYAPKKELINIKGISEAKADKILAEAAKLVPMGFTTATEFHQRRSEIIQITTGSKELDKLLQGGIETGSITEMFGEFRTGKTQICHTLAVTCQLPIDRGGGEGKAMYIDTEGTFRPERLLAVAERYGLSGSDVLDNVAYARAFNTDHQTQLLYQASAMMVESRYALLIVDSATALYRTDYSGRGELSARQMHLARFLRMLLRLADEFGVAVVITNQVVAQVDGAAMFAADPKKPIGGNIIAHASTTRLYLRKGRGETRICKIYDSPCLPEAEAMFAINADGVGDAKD
Assay: SPR solution competition assay
Details: SPR solution competition format; read-out: median inhibitory concentration (IC50), displacement of BRC repeat from complex with Rad51
Measured quantity: IC50

Entry O=S(=O)(Cc1ccccc1)N1C=Cc2ccccc2C1c1c[nH]c2ccccc12 (stereo not shown) — recorded IC50 = ~115 nM
